- target-entity: UniProt:P28838
- test-method-notes: human M17LAP inhibitors, dose response, counter-screen for PfM17LAP inhibitor project, biochemical, QFRET fluorogenic substrate (AID 602214)
- study-conditions: purified recombinant human M17LAP, H-Leu-NHMec fluorescence; at 100 µM (top of the series)
The source made the active and inactive calls.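 Rule for the calls: active = inhibition of 30% or more at any tested concentration; inactive = the rest.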
result-type: inhibition

Examples with their reported inhibition follow.
compound: N[C@@H](Cc1c[nH]c2ccccc12)C(=O)NO
result: inactive
--
compound: COC(=O)c1c(NC(=O)c2ccccc2C(=O)O)sc2c1CCCC2
result: inactive
--
compound: O=C(CSc1nc(O)cc(=O)[nH]1)Nc1ccccc1
result: inactive
--
compound: COc1cc(NC(=O)c2ccc(-c3ccccc3)cc2)c(C(=O)O)cc1OC
result: inactive
--
compound: COc1ccc(-c2nnc(NC(=O)C3CC(C)=C(C)CC3C(=O)O)s2)cc1 (configuration not stated)
result: inactive
--
compound: Cc1cc(SCC(=O)Nc2ccccc2C(=O)O)nc2ccccc12
result: inactive
--
compound: CN(O)C(=O)Cc1ccc(OCc2ccccc2)cc1
result: inactive
--
compound: COc1cc(NC(=O)CSc2ccccc2)c(C(=O)O)cc1OC
result: inactive
--
compound: CCC(C)(C)C1CCc2c(sc(NC(=O)C3CC(C)=C(C)CC3C(=O)O)c2C(=O)OC)C1 (configuration not stated)
result: inactive
--
compound: Cc1cc(=O)[nH]c(SCC(=O)Nc2ccccc2)n1
result: inactive

Q: # get_value(readout='inhibition', item= "CC(C)C[C@H](N)C(=O)NO" )
Result: inactive

Q: So what's the measured inhibition for this one? "CCCCOc1ccc(CNc2c(N(O)Cc3ccccc3)c(=O)c2=O)cc1"
Result: inactive

----------
Known IC50 of a selection of molecules
- target-entity: Cytosol aminopeptidase (Homo sapiens) (UniProt P28838)
- Sequence (P28838 whole entry, looked up): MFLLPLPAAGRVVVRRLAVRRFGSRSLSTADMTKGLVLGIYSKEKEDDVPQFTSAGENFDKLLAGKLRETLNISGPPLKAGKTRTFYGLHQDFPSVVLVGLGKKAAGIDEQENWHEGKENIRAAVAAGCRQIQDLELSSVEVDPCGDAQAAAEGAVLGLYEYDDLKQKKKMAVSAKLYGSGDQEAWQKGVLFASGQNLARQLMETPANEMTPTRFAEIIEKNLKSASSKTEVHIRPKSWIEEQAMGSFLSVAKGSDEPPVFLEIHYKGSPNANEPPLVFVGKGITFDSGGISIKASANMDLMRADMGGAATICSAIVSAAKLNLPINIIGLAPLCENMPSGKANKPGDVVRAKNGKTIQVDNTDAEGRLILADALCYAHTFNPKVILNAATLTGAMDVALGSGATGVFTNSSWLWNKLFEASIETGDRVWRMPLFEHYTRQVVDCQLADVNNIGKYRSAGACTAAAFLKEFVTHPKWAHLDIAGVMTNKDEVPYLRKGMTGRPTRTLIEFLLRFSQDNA
- test-method-notes: human M17LAP inhibitors, dose response, counter-screen for PfM17LAP inhibitor project, biochemical, QFRET fluorogenic substrate (AID 602214)
- study-conditions: purified recombinant human M17LAP, H-Leu-NHMec fluorescence

smiles-notation: O=C(Cc1ccc2c(c1)CCCC2)NO
target-entity: Cytosol aminopeptidase (Homo sapiens) (UniProt P28838)
IC50: 280 nM

Q: Can you look up the measured IC50 of "COc1ccc(CC(=O)NO)cc1" for me?
Result: 1640 nM

Q: # IC50 lookup, item "O=C(Cc1ccc(Oc2ccccc2)cc1)NO"
Result: 520 nM

Q: Given "CCCCOc1ccc(CC(=O)NO)cc1" , state its recorded IC50.
Result: 310 nM

Q: Look up IC50 for this molecule: "CCCCOc1ccc(C(=O)NO)cc1"
Result: 8670 nM

Q: Give its IC50 value. Item: "COc1ccc(OCCC(=O)NO)cc1"
Result: 44200 nM

----------
- target-entity: Cytosol aminopeptidase (Homo sapiens) (UniProt P28838)
- test-method-notes: human M17LAP inhibitors, dose response, counter-screen for PfM17LAP inhibitor project, biochemical, QFRET fluorogenic substrate (AID 602214)
- study-conditions: purified recombinant human M17LAP, H-Leu-NHMec fluorescence
# Lookup of reported IC50 keyed by entry

Q: Item under review: "O=C(Cc1ccc2ccccc2c1)NO" . Reported IC50?
Result: 290 nM

Q: Could you tell me which IC50 is on file for "CC(C)COc1ccc(CC(=O)NO)cc1" ?
Result: 210 nM

Q: Which IC50 value is on record for "CCCCc1ccc(CC(=O)NO)cc1" ?
Result: 350 nM

Q: Reported IC50, molecule "CCCCCCCCCC(=O)NO" : ____
Result: 8230 nM

Reference source: PubChem BioAssay AID602214
